Target: human H4R Y319A mutant (Homo sapiens, UniProt Q9H3N8, Y319A)
Construct: a mutant H4R (human, full-length, and untagged); expressed in transfected cells; host or cells: HEK293A
Sequence (Q9H3N8 whole entry Y319A): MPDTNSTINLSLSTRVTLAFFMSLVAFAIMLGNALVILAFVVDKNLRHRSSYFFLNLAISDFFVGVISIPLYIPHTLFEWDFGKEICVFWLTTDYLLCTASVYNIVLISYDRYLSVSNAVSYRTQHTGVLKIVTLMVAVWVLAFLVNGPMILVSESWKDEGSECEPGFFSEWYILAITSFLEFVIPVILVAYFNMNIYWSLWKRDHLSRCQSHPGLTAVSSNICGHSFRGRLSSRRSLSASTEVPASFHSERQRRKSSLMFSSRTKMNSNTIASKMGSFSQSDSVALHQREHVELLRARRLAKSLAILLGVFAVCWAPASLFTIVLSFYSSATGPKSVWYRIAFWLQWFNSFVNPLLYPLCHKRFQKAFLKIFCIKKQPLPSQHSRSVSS
Test: TGFα shedding assay, H4R Y319A mutant
Type: cell-based
Conditions: pEC50 mean ± SEM, Y319A mutant
measuredQuantity: EC50 (nM)
Give bare numbers, in nM.

Case N=C(N)SCCc1cnc[nH]1 , human H4R Y319A mutant (Homo sapiens, UniProt Q9H3N8, Y319A), EC50 recorded as 141

----------
Target: human H4R D94A mutant (Homo sapiens, UniProt Q9H3N8, D94A)
Construct: a mutant H4R (human, full-length, and untagged)
Sequence (Q9H3N8 whole entry D94A): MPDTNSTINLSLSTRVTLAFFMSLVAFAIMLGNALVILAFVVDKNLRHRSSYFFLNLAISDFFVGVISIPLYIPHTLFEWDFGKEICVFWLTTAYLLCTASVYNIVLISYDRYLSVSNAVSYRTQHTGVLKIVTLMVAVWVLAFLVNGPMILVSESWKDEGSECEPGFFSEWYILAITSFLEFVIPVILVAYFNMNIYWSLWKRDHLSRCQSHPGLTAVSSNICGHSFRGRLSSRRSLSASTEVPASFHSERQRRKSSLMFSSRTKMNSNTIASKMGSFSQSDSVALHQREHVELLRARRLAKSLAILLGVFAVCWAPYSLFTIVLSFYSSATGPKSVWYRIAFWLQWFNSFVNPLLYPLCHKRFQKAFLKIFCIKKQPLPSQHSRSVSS
Assay: TGFα shedding assay, H4R D94A mutant
measuredQuantity: EC50

Considering N=C(N)SCCc1cnc[nH]1 [Imetit, imetit] , its EC50 with human H4R D94A mutant (Homo sapiens, UniProt Q9H3N8, D94A) was recorded as > 10 µM
